# procedureDetails: NCI Yeast Anticancer Drug Screen. Data for the sgs1 mgt1 strain (AID 161);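 further: 0% = growth of cultures given vehicle only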
# protocolConditions: S. cerevisiae sgs1 mgt1 strain, at 50.0 µM, hits give high values
This is part of a sample that, as a whole, favours compounds with a hit. Of some 79,000 tested, about 15% had one in any assay.
Exercise: state measured growth inhibition for each of the compounds provided.
Lab book: enter the figure in %, no units written.

Sample COC1C(N)C(OC2C(Oc3cccc4c(O)c5c(=O)oc6ccc(C)c7c(=O)oc(c34)c5c67)OC(C)C(O)C2(C)O)OC(C)C1O (centres undefined) — what was its growth inhibition?
23.1

If you can, please state the reported growth inhibition value of CC(C)=CCC(CC=C(C)C)c1ccncc1 (tested in a mixture with another compound) .
99.5

Requested field: growth inhibition. Item: `CC1(C)NNC(=S)NN1`
21.3

What does the record list as growth inhibition for `Oc1c(Cl)cc(C(c2cc(Cl)c(O)c(Cl)c2)C(Cl)(Cl)Cl)cc1Cl` ?
99.3

Report growth inhibition for `Nc1cccc2c1C(=O)c1ccc(Cl)cc1C2=O` please.
55

I'd like to know its growth inhibition. The compound in question is `Fc1ccc2[nH]ccc2c1`
60.6

Quick check: growth inhibition of `O=C(Nc1ccc(Cl)cc1)NS(=O)(=O)c1ccc2c(c1)CCC2` ?
69.8

Tell me the measured growth inhibition of `COc1ccc(C(=O)O)c(-c2c(C(=O)O)ccc(OC)c2OC(C)=O)c1` , please.
-3.85

Item under review: `CC(C)(C)C(=O)CC(=O)C(F)(F)C(F)(F)C(F)(F)F.[Ag]` . Reported growth inhibition?
90

What growth inhibition value was documented for this compound, `Cc1ccc(NC(=S)N(CCC#N)C2CCCCC2)cc1C` ?
10.3

Looking for the measured growth inhibition of COc1ccc(C2CC(c3c(O)ccc4ccccc34)=NN2)cc1OC (centres undefined) , can you help?
90.4

Return reported growth inhibition; argument: `CCCCCCc1ccc(O)c(Cl)c1`
77.3

Could you share which growth inhibition value was measured for `CN(C)CCCC(C#N)(CCCN(C)C)c1ccccc1` ?
10.6

Which growth inhibition is listed for `NC(=S)Nc1c(Br)cc(Br)cc1Br` ?
34.8

GET /values?readout=growth inhibition&item= `CC(C)(C)NC(=S)N/N=C/c1cc(Cl)cc(Cl)c1O`
90.4

Field request: growth inhibition | item: `Nc1ncnc2nc[nH]c12.[Ag]`
99.7

What does the data say about its growth inhibition? Entry: CC1(C)CCCC12C=NCC2 (centres undefined)
31.9

Requested field: growth inhibition. Item: `CC/C(=C(/CC)c1ccc(O)cc1)c1ccc([O-])cc1.CC/C(=C(/CC)c1ccc(O)cc1)c1ccc([O-])cc1.O=C([CH-]C(=O)c1ccccc1)c1ccccc1.O=C([CH-]C(=O)c1ccccc1)c1ccccc1.[Ti+4]`
92.8

Need growth inhibition, item CCC1C(c2ccccc2O)c2cc3c(cc2OC1N1CCOCC1)OCO3 (centres undefined)
88.2

Find the recorded growth inhibition belonging to N#CC1=C(N)OC(c2ccccc2)=C(C#N)C1c1ccccc1[N+](=O)[O-] (centres undefined) and report it.
22.7

Given the entry OC(Cc1ccc(Br)cc1)CN1CCC(c2ccccc2)CC1 (centres undefined) , report its measured growth inhibition.
82.8

Could you share which growth inhibition value was measured for `Oc1c(Cl)cc(Cl)c(Cc2c(Cl)cc(Cl)c(O)c2Cl)c1Cl` ?
-10.2

Returns the measured growth inhibition for the input compound. Input: `O/N=C(/C[N+]12CN3CN(CN(C3)C1)C2)c1ccc(I)cc1`
96.2

Bench note: what growth inhibition did `COc1ccc(C(=O)CCc2c[nH]c3ccccc23)c(O)c1` show?
36

Quick one: growth inhibition for CC(=O)OCC1OC(Sc2ccc3ccccc3c2)C(OC(C)=O)C(OC(C)=O)C1OC(C)=O (centres undefined) ?
2.7

Which value of growth inhibition has been reported for CC(=O)OC(C)C1C2=C(C(=O)CC1(C)O)C(=O)c1c(ccc(-c3ccc4c(c3O)C(=O)C3=C(C4=O)C(C(C)OC(C)=O)C(C)(O)CC3=O)c1O)C2=O (centres undefined) in the records?
76.5

Consider the compound shown here: `CCCCCCCCCCCCNC(=O)NCC(OCC)OCC` What is its recorded growth inhibition?
92.3

I would be grateful if you could share the reported growth inhibition for `CCCCCCCCCCCCCCNC(=O)C[N+](C)(C)Cc1ccccc1` .
99.3

For `OCCOc1ccc2ccccc2c1-c1c(OCCOc2ccc3ccccc3c2-c2c(OCCO)ccc3ccccc23)ccc2ccccc12` , what is its reported growth inhibition?
36.9

Would you mind telling me what growth inhibition value was observed for `C1=CC2OC1c1cc3ccccc3cc12` ?
89.9

Would you kindly share the measured growth inhibition for `S=C(Nc1ccccc1)[S][Sb]([S]C(=S)Nc1ccccc1)[c]1ccccc1` ?
43.1

Param item = `Cc1nc(Cl)nc(N)c1[N+](=O)[O-]` ; retrieve measured growth inhibition.
24.8

Need growth inhibition of `c1cc2c3c(c1)[I+]c1cccc(c1-3)[I+]2` , thanks.
65.9

Query (compound): `[Cl][Sn]1([Cl])[CH2]CC[CH2][Sn]([Cl])([Cl])[CH2]CC[CH2][Sn]([Cl])([Cl])[CH2]CC[CH2][Sn]([Cl])([Cl])[CH2]CC[CH2]1` ; field requested: growth inhibition
87.5

Could you share which growth inhibition value was measured for `Nc1ccccc1Sc1ccc(F)cc1[N+](=O)[O-]` ?
89.1

Can you look up the measured growth inhibition of CCOC(=O)C1=C(C)NC2=C(C(=O)N(c3ccccc3)C2c2ccccc2)C1c1ccccc1 (centres undefined) for me?
63.1

Give its growth inhibition value. Item: `Cc1c(F)c(C)c(C(=O)O)c(C)c1F`
99.5

Form field: reported growth inhibition of `N#Cc1ccc(OC(=O)Nc2c(Cl)cccc2Cl)cc1`
86.2

Given `C#CCNC1=CC(=O)CCC1` , state its recorded growth inhibition.
-4.55

growth inhibition lookup needed for `O=P1(Cc2ccccc2)c2ccccc2-c2ccccc21` , thanks.
88.9

Entry under review: COc1ccc(N2CCN(CC(O)COc3cc4c(c5c3CCCC5)CCCC4)CC2)cc1 (centres undefined) . Reported growth inhibition?
54.7

Look at this compound and give its reported growth inhibition. `O=C1C=CC(=O)N1c1ccc(Br)c(Cl)c1`
80.3

What growth inhibition value was documented for this compound, CCCCCC1OC1CC1OC1CCCCCCCC(=O)OC (centres undefined) ?
40.4

Look at this compound and give its reported growth inhibition. O=C1CCC(Cc2ccccc2Br)C(=O)N1 (centres undefined)
97.2

Hello, the source for this data is PubChem BioAssay (NCI), in case you need it.
